EXPERIMENTAL DETAILS: Half life in beagles as a solution in water at 0.5 mg/kg, iv and 2.0 mg/kg, po.
Type: ADME, organism-based, Canis lupus familiaris
CONDITION CONTEXT: beagle, dog, in vivo
OUTCOME MEASURE: half-life (h)

* CN1C[C@H]2CC[C@@H]1[C@H](C(=O)N[C@H](Cc1ccc(F)cc1)C(=O)N1CCC(C(=O)NC(C)(C)C)(C3CCCCC3)CC1)C2 | 4.9

---

EXPERIMENTAL DETAILS: Cmax value in Sprague Dawley rats as a solution in water at 1 mg/kg, iv and 20 mg/kg, po.
Format: ADME, organism-based
CONDITION CONTEXT: rat, in vivo
OUTCOME MEASURE: Cmax (nM)

* CN1C[C@H]2CC[C@@H]1[C@H](C(=O)N[C@H](Cc1ccc(F)cc1)C(=O)N1CCC(C(=O)NC(C)(C)C)(C3CCCCC3)CC1)C2 | 870

---

EXPERIMENTAL DETAILS: Bioavailability in Sprague Dawley rats as a solution in water at 1 mg/kg, iv and 20 mg/kg, po.
Assay type: ADME, organism-based
CONDITION CONTEXT: rat, in vivo
OUTCOME MEASURE: bioavailability (%)

* CN1C[C@H]2CC[C@@H]1[C@H](C(=O)N[C@H](Cc1ccc(F)cc1)C(=O)N1CCC(C(=O)NC(C)(C)C)(C3CCCCC3)CC1)C2 | 32

---

EXPERIMENTAL DETAILS: […] in beagles as a solution in water at 0.5 mg/kg, iv and 2.0 mg/kg, po.
Format: organism-based, Canis lupus familiaris
CONDITION CONTEXT: beagle, dog, in vivo
OUTCOME MEASURE: Tmax (h)

- CN1C[C@H]2CC[C@@H]1[C@H](C(=O)N[C@H](Cc1ccc(F)cc1)C(=O)N1CCC(C(=O)NC(C)(C)C)(C3CCCCC3)CC1)C2: 1.1

---

TESTED SYSTEM: Melanocortin receptor 5 (Homo sapiens, UniProt P33032)
Sequence (P33032 whole entry): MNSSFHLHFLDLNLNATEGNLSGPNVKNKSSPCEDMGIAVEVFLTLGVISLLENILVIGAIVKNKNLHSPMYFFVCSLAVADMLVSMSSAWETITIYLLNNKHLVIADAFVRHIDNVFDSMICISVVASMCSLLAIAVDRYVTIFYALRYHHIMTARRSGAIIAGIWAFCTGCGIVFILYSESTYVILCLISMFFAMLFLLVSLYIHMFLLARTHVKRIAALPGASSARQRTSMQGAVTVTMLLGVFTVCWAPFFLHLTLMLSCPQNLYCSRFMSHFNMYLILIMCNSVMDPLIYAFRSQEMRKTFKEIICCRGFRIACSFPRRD
EXPERIMENTAL DETAILS: Inhibition concentration (binding affinity) against human melanocortin receptor 5 by displacement of [125I]NDP-alpha-MSH from the human receptors expressed in CHO cells
OUTCOME MEASURE: IC50 (nM)

- CC(C)(C)NC(=O)C1(C2CCCCC2)CCN(C(=O)[C@@H](Cc2ccc(F)cc2)NC(=O)[C@H]2C[C@@H]3CC[C@@H]2NC3)CC1: 1020
- CN1C[C@@H]2CC[C@H]1[C@@H](C(=O)N[C@H](Cc1ccc(F)cc1)C(=O)N1CCC(C(=O)NC(C)(C)C)(C3CCCCC3)CC1)C2: 1080
- CN1C[C@H]2CC[C@@H]1[C@@H](C(=O)N[C@H](Cc1ccc(F)cc1)C(=O)N1CCC(C(=O)NC(C)(C)C)(C3CCCCC3)CC1)C2: 6460
- CC(C)(C)NC(=O)C1(C2CCCCC2)CCN(C(=O)[C@@H](Cc2ccc(F)cc2)NC(=O)C2CC3CCC2NC3)CC1 (single isomer, unassigned): 940
- CC(C)(C)NC(=O)C1(C2CCCCC2)CCN(C(=O)[C@@H](Cc2ccc(F)cc2)NC(=O)[C@H]2C[C@H]3CC[C@@H]2NC3)CC1: 9870

---

TESTED SYSTEM: Melanocortin receptor 4 (Homo sapiens)
Sequence (P32245 whole entry): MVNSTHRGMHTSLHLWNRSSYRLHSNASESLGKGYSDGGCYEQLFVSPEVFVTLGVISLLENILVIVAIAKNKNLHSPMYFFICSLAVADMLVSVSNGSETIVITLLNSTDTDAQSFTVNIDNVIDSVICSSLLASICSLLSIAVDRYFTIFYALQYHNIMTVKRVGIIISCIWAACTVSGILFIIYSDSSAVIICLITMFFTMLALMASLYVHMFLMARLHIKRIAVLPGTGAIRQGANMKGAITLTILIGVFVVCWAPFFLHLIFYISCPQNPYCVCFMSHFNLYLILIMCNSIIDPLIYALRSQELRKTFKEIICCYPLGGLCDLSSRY
EXPERIMENTAL DETAILS: Concentration of compound at 50% maximum cAMP accumulation in human melanocortin receptor (hMC4R)
Type: functional
pEC50: −log10 of the molar value.
OUTCOME MEASURE: pEC50

* CN1C[C@H]2CC[C@@H]1[C@H](C(=O)N[C@H](Cc1ccc(F)cc1)C(=O)N1CCC(C(=O)NC(C)(C)C)(C3CCCCC3)CC1)C2 | 4.96
